These measurements were taken from patent US20120302609A1.

List of Emax values.
Target: PKM2, human recombinant (Homo sapiens, UniProt P14618)
Construct: purchased BPS 50295
Sequence (P14618 whole entry): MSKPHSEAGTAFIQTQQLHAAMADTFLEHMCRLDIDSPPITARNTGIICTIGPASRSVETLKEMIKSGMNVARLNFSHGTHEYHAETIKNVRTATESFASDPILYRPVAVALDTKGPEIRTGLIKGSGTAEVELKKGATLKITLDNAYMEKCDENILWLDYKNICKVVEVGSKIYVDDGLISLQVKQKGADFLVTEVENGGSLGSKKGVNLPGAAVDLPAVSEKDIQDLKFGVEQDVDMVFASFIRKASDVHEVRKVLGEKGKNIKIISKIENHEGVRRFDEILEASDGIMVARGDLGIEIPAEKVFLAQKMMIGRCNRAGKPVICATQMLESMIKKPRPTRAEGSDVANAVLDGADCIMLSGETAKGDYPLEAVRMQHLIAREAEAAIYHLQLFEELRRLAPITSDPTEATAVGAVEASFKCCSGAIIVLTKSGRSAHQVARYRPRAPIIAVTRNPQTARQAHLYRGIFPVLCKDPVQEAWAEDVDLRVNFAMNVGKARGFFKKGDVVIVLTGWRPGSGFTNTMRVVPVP
Assay: PKM2 enzymatic activity assay (Kinase-Glo Plus luminescence);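 note: percent increase over no-compound signal after subtracting the no-PKM2 background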
Format: biochemical
Details: 1 h, maximum percent activity; luminescence without compound = 0% activity; read-out: Max activity Group

These recorded examples may help you get a feel for the data.
1) CCS(=O)(=O)Nc1ccc(C2=NN(C(C)=O)C(c3ccc(OC)cc3)C2)cc1 (racemic) [Compound 1A]	130 to 200%
2) CC(=O)N1N=C(c2ccc(NS(=O)(=O)c3ccc(F)cc3)cc2)CC1c1ccc2c(c1)CCO2 (stereo not drawn) [Compound 22A]	130 to 200%

Here's the next entry for you.
Task: // Input: CCS(=O)(=O)Nc1ccc(C2=NN(C(C)=O)C(c3ccc4c(c3)OCCO4)C2)cc1 (stereo not drawn) . Output its Emax only.
Output: 130 to 200%
